Molecular target: 5-hydroxytryptamine receptor 1A (Rattus norvegicus, UniProt P19327)
Sequence (P19327 whole entry): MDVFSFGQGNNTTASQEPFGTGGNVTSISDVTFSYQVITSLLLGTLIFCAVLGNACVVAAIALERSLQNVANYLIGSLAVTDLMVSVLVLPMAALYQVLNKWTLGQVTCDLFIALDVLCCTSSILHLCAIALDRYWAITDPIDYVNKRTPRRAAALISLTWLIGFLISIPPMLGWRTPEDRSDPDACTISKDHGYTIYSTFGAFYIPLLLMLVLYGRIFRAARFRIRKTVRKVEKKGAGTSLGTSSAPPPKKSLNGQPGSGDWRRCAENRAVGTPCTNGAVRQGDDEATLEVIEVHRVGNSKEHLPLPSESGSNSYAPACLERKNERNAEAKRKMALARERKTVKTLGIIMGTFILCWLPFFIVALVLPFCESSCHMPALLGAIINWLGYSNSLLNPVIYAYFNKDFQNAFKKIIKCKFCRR
pKi: −log10 of the molar value.
attribute-measured: pKi

>>> df
                                   compound                           measured_target  measurement
0  O=C1C2CCCN2C(=O)CN1CCCCN1CCN(c2cccc(C(F)(F)F)c2)CC1 (stereo not given)  5-hydroxytryptamine receptor 1A (Rattus norvegicus, UniProt P19327)         8.26
1  N#Cc1ccccc1N1CCN(CCCCN2CC(=O)N3CCCCC3C2=O)CC1 (stereo not given)  5-hydroxytryptamine receptor 1A (Rattus norvegicus, UniProt P19327)         7.82
2  N#Cc1ccccc1N1CCN(CCCN2C(=O)C3CCCCN3C2=O)CC1 (stereo not given)  5-hydroxytryptamine receptor 1A (Rattus norvegicus, UniProt P19327)         7.19
3  Nc1cccc(N2CCN(CCCN3C(=O)C4CCCN4C3=O)CC2)c1 (stereo not given)  5-hydroxytryptamine receptor 1A (Rattus norvegicus, UniProt P19327)         5.93
4  CCCOC(=O)c1ccccc1N1CCN(CCCCN2CC(=O)N3CCCCC3C2=O)CC1 (stereo not given)  5-hydroxytryptamine receptor 1A (Rattus norvegicus, UniProt P19327)         7.55
5  O=C1C2CCCCN2C(=O)N1CCCCN1CCN(c2cccc(Br)c2)CC1 (stereo not given)  5-hydroxytryptamine receptor 1A (Rattus norvegicus, UniProt P19327)         8.27
6  N#Cc1ccccc1N1CCN(CCCN2CC(=O)N3CCCC3C2=O)CC1 (stereo not given)  5-hydroxytryptamine receptor 1A (Rattus norvegicus, UniProt P19327)         7.57
7  CCCOC(=O)c1ccccc1N1CCN(CCCN2C(=O)C3CCCCN3C2=O)CC1 (stereo not given)  5-hydroxytryptamine receptor 1A (Rattus norvegicus, UniProt P19327)         7.34
8  CCCCOc1ccccc1N1CCN(CCCN2CC(=O)N3CCCCC3C2=O)CC1 (stereo not given)  5-hydroxytryptamine receptor 1A (Rattus norvegicus, UniProt P19327)         7.04
9  CCCCOc1ccccc1N1CCN(CCCCN2C(=O)C3CCCCN3C2=O)CC1 (stereo not given)  5-hydroxytryptamine receptor 1A (Rattus norvegicus, UniProt P19327)         8.66

Origin of measurements: ChEMBL document CHEMBL1134607
